Tested on: cloned human or rodent CNS receptors, channels, and transporters (PDSP panel)
Assay: PDSP GPCR panel primary binding assays at 10 μM
Details: Receptor Alpha2C; primary assay, 10 μM; mean of Inhibition 1-4
Could you please report measured Mean % for the items listed next?
Please reply with the bare figure in % and do not write the unit itself.

Task item: State the recorded Mean % for this entry: CCCCNc1ncc2c(-c3ccc(CN4CCN(C)CC4)cc3)cn([C@H]3CC[C@H](O)CC3)c2n1 [UNC2025C, UNC2025]
Reply: 36.17

Task item: Next: Cl.NC(=O)c1cnc(N[C@@H]2CCCC[C@@H]2N)nc1Nc1cccc(-n2nccn2)c1 [UNC10302682A, P505-15 (PRT06207 HCl)]
Reply: 20.31

Task item: Next: O=c1oc2ccccc2cc1-c1cn2cc(Cc3ccc(F)cc3)sc2n1 [UNC10302680A, iMDK]
Reply: 8.48

Task item: Next: c1cn2cc(-c3ccc4cn[nH]c4c3)nc(Nc3ccc(N4CCOCC4)cc3)c2n1 [UNC10302678A, Entospletinib (GS-9973)]
Reply: 6.78
